Experiment: Pharmacokinetics of compound 6 in mice: plasma, urine, bladder, kidneys by HPLC-MS/MS
Assay type: in vivo, female CBA/J mice
Details: female, CBA/J, mouse, bladder, subcutaneous; 100 mg/kg s.c. once a day at 0, 24, 48 h; at 52 h; read-out: mean tissue level in bladder
measured_metric: concentration at 52 h

[Q] Requested field: concentration at 52 h. Item: NC1CCCc2c1[nH]c1ccc(F)cc21 (stereo not shown) [compound 6]
[A] 203 µM

---

System: HepG2 cells
Test: Cytotoxicity by LDH release in HepG2 cells
Type: cell-based
Conditions: Homo sapiens, 24 h incubation, 0 to 160 μM
measured_metric: IC50

[Q] Form field - read-out: IC50; system: HepG2 cells; submitted item: NC1CCCc2c1[nH]c1ccc(F)cc21 (stereo not shown)
[A] > 33 µM

---

Assay: Pharmacokinetics of compound 6 in mice: plasma, urine, bladder, kidneys by HPLC-MS/MS
Type: in vivo, female CBA/J mice
Conditions: female, CBA/J, mouse, plasma, subcutaneous; 100 mg/kg s.c. once a day at 0, 24, 48 h; sample at 52 h; read-out: mean peak level in plasma
measured_metric: concentration at 52 h
The number alone won't do; follow it with the unit.

[Q] Requested field: concentration at 52 h. Item: NC1CCCc2c1[nH]c1ccc(F)cc21 (stereo not shown)
[A] 18.6 µM
